Assign melting point to each entry below.

Query: Value lookup for melting point; key = `COc1cc(Nc2c(C#N)cnc3cc(-c4ccc(CN5CCOCC5)cc4)c(OC)cc23)c(Cl)cc1Cl`
Response: 108 to 110 °C

Query: I am curious: what melting point value has been reported for `COc1cc(C)ccc1-c1cc2ccccc2[nH]1` ?
Response: 125 °C

Query: Fill blank: measured melting point of the compound `CCOC(=O)c1[nH]c(C)c(C(C)(C)C)c1C` is ____.
Response: 108 to 110 °C

Query: Value lookup for melting point; key = O=C(Nc1nccs1)c1ccc(CN2C(=O)C3(COc4cc5c(cc43)CCO5)c3ccccc32)cc1 (centres undefined)
Response: > 250 °C

Query: Value lookup for melting point; key = `CC(C)(C)c1ccc(N2C(=O)c3ccc4c5cccc6cccc(c7ccc(c3c47)C2=O)c65)cc1`
Response: > 330 °C

Query: Need melting point of `COc1ccc(-c2[nH]nc3c2C(=O)c2c(NC(=O)NNC(=O)c4ccc(O)cc4)cccc2-3)cc1` , thanks.
Response: 283 °C

Query: What value of melting point has been reported for the following compound? `CCCCOCCOc1ccc(-c2ccc3c(c2)C=C(C(=O)Nc2ccc(SCc4nncn4CCC)c(C(F)(F)F)c2)CCN3CC(C)C)cc1`
Response: 131 to 133 °C

Query: Fill in: melting point of `CN(CCF)C(=O)c1cc2ccccc2c(-c2ccccc2I)n1` is ___
Response: 142 to 143 °C

Query: I'd like to know its melting point. The compound in question is `C=Cc1cc(C)cc(C)c1C1=C(O)C2(CCN(OC)CC2)NC1=O`
Response: 198 to 200 °C
